target: Bcl-2-like protein 10 (Homo sapiens); assay: displacers of TR3 peptide from Bcl-B, primary screen, selectivity assay for Bfl-1 inhibitor project, biochemical, fluorescence polarization, FITC-TR3 peptide (AID 748); settings: FP displacement of FITC-TR3 peptide from Bcl-B; at 20 µM; stronger effect = higher value;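 also: plate controls were wells without compound for no effect and wells lacking Bcl-B protein for full effect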
Out of some 96,000 compounds screened, about 100 (0.1%) were called active. The list comes from a sample in which actives are over-represented; it also holds close analogues and randomly drawn compounds. Measured potencies and affinities stand elsewhere.
Parameter: displacement. Scope: all listed entries.
Give just the numeric value; % need not be written.

Some molecules with known displacement results, for comparison:
[[record]]
molecule = "COc1ccccc1NC(=O)CNC(=O)c1ccc(F)cc1"
quantity_measured = "displacement"
experimental_value = -4.7

[[record]]
molecule = "CC1Cc2ccccc2N1C(=O)CSc1nc2cc3c(cc2cc1C#N)OCO3 (stereo unspecified)"
quantity_measured = "displacement"
experimental_value = 3.7

[[record]]
molecule = "CCn1c(SCC(=O)Nc2ccc(S(N)(=O)=O)cc2)nnc1-c1ccccc1OC"
quantity_measured = "displacement"
experimental_value = -8.3

[[record]]
molecule = "CCCOP(=O)(OCCC)C(Nc1ccc(C(C)C)cc1)c1ccc([N+](=O)[O-])cc1 (stereo unspecified)"
quantity_measured = "displacement"
experimental_value = 13.7

[[record]]
molecule = "Cn1nnnc1SCCNCc1ccccc1F"
quantity_measured = "displacement"
experimental_value = 1.2


Now consider the entry below.
Input line: Item under review: Cc1cc(C)c2c(=O)c3c(oc2c1)C(=O)N(CCO)C3c1cccc(O)c1 (stereo unspecified) . Reported displacement?
Output line: 3.4
